Origin of measurements: patent US20250213555A1

Target: human Nav 1.8 (Homo sapiens, UniProt Q9Y5Y9)
Sequence (Q9Y5Y9 126-399 limits assumed): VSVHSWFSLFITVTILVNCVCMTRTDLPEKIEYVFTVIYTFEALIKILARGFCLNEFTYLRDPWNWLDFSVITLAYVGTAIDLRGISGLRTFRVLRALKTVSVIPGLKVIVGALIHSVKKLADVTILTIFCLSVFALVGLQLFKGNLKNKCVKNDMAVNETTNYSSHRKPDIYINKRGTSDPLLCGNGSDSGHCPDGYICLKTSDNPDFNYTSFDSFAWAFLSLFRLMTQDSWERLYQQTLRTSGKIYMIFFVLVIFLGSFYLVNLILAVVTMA
Sequence (Q9Y5Y9 660-890 limits assumed): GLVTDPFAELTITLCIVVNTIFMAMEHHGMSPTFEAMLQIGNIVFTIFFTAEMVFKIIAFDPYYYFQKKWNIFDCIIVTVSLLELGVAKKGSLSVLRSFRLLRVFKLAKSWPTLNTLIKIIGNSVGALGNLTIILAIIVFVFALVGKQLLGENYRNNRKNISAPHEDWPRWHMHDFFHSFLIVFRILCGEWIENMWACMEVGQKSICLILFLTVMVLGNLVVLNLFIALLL
Sequence (Q9Y5Y9 1148-1722 limits assumed): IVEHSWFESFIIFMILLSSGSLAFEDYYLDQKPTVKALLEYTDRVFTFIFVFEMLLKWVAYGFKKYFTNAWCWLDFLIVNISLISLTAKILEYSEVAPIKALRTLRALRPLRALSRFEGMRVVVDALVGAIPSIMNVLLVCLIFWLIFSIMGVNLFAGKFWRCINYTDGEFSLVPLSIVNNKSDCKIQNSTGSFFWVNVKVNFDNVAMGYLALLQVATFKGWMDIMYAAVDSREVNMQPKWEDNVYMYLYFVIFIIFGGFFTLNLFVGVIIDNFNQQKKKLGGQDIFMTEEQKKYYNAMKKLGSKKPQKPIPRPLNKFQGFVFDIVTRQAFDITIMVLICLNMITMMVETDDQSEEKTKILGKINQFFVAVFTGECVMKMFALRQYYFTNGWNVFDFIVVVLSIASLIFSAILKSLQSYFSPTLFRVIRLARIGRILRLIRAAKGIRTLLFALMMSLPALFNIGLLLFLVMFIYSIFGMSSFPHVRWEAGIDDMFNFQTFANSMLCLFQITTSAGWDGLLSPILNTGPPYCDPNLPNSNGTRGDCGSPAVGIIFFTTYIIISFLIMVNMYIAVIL
Test: E-VIPR assay detecting and measuring Nav inhibition properties
Assay type: cell-based
Conditions: HEK cells expressing a truncated form of human Nav 1.8; compound numbers without "*" (not marked as run in the presence of human serum); read-out: measured IC50 value in the E-VIPR Assay
Excerpt: E-VIPR Assay Detecting and Measuring Nav Inhibition Properties Sodium ion channels are voltage-dependent proteins that can be activated by inducing membrane voltage changes by applying electric fields. […]
Reported IC50 values for a set of compounds

Some entries whose results are on file:
COc1c([C@H]2[C@H](C(=O)Nc3cccc(C(=O)N4CCNCC4)n3)O[C@@](C)(C(F)(F)F)[C@H]2C)ccc(F)c1F    10 to 100 nM
C[C@H]1[C@@H](c2ccc(F)c(F)c2OCC(=NO)C2CCC2)[C@H](C(=O)Nc2ccnc(C(N)=O)c2)O[C@@]1(C)C(F)(F)F    < 10 nM
COc1c([C@H]2[C@H](C(=O)Nc3ccnc(C(=O)N4CCN(C)C[C@H]4C)c3)O[C@@](C)(C(F)(F)F)[C@H]2C)ccc(F)c1F    < 10 nM
C[C@H]1[C@@H](c2ccc(F)c(F)c2OCCN2CC(C)(F)C2)[C@H](C(=O)Nc2ccnc(C(N)=O)c2)O[C@@]1(C)C(F)(F)F    < 10 nM
C[C@@H]1COCCN1CCOc1c([C@H]2[C@H](C(=O)Nc3ccnc(C(N)=O)c3)O[C@@](C)(C(F)(F)F)[C@H]2C)ccc(F)c1F    < 10 nM
COc1c([C@H]2[C@H](C(=O)Nc3ccnc(C(=O)N4CC5(CNC5)C4)c3)O[C@@](C)(C(F)(F)F)[C@H]2C)ccc(F)c1F    < 10 nM

Input line: Enter measured IC50, system human Nav 1.8 (Homo sapiens, UniProt Q9Y5Y9), for the compound shown: C[C@H]1[C@@H](c2ccc(F)c(F)c2OCCN2CC3CCC2CO3)[C@H](C(=O)Nc2ccnc(C(N)=O)c2)O[C@@]1(C)C(F)(F)F (some centres unmarked)
Output line: < 10 nM

Input line: Fill in IC50 for `C[C@H]1CN(CCOc2c([C@H]3[C@H](C(=O)Nc4ccnc(C(N)=O)c4)O[C@@](C)(C(F)(F)F)[C@H]3C)ccc(F)c2F)CCO1` tested with human Nav 1.8 (Homo sapiens, UniProt Q9Y5Y9).
Output line: < 10 nM

Input line: // fetch IC50 for C[C@H]1[C@@H](c2ccc(F)c(F)c2O[C@@H]2CCN(C)C2)[C@H](C(=O)Nc2ccnc(C(N)=O)c2)O[C@@]1(C)C(F)(F)F (single isomer, unassigned) ; system: human Nav 1.8 (Homo sapiens, UniProt Q9Y5Y9)
Output line: 10 to 100 nM

Input line: Supply IC50 measured with human Nav 1.8 (Homo sapiens, UniProt Q9Y5Y9) for `COc1c([C@H]2[C@H](C(=O)Nc3ccnc(C(=O)N4C[C@H](OC)[C@@H](N)C4)c3)O[C@@](C)(C(F)(F)F)[C@H]2C)ccc(F)c1F` .
Output line: < 10 nM

Input line: Give the observed IC50 of CC1C(c2ccc(F)c(F)c2OCC2CC(C)(O)C2)C(C(=O)Nc2ccnc(C(N)=O)c2)OC1(C)C(F)(F)F (single isomer, unassigned) [Compound 200] for human Nav 1.8 (Homo sapiens, UniProt Q9Y5Y9).
Output line: 10 to 100 nM

Input line: Look up and report measured IC50 (human Nav 1.8 (Homo sapiens, UniProt Q9Y5Y9)) for the following compound: `C[C@H]1[C@@H](c2ccc(F)c(F)c2OCC2(CO)CC2)[C@H](C(=O)Nc2ccnc(C(N)=O)c2)O[C@@]1(C)C(F)(F)F`
Output line: < 10 nM

Input line: Please respond with reported IC50 (system human Nav 1.8 (Homo sapiens, UniProt Q9Y5Y9)) for COc1c([C@H]2[C@H](C(=O)Nc3ccnc(C(N)=O)c3)O[C@@](C)(C(F)(F)F)[C@H]2C)ccc(OCC2CC2)c1F (single isomer, unassigned) .
Output line: < 10 nM

Input line: Provide IC50, system human Nav 1.8 (Homo sapiens, UniProt Q9Y5Y9), entry `COc1c([C@H]2[C@H](C(=O)Nc3ccnc(C(=O)NCCN(C)C)c3)O[C@@](C)(C(F)(F)F)[C@H]2C)ccc(F)c1F`
Output line: < 10 nM
